Quantity kind: melting point

{"Molecule": "COc1cccc(-c2ccc3c(c2)C(C)(C)C(=O)N3)c1", "Value": "157 to 158 °C"}
{"Molecule": "O=C1Nc2ccc(-c3ccc(C=NO)c(F)c3)cc2C12CCCCC2", "Value": "240 to 242 °C"}
{"Molecule": "N#CCc1cccc(-c2ccc3c(c2)C2(CCCCC2)C(=O)N3)c1", "Value": "190 to 193 °C"}
{"Molecule": "O=C1Nc2ccccc2C12CCCC(c1cccc(F)c1)C2 (centres unmarked)", "Value": "171 to 172 °C"}
{"Molecule": "CC1(C)C(=O)Nc2ccc(-c3cc(F)cc(C#N)c3)cc21", "Value": "231.2 to 232.3 °C"}

* * *

Quantity kind: melting point

{"Smiles repr": "CCOC(OCC)N1C(=O)C2(CCCCC2)c2cc(-c3cc(F)cc(C#N)c3)ccc21", "Quantity kind": "melting point", "Value": "146 °C"}
{"Smiles repr": "N#Cc1cncc(-c2ccc3c(c2)C2(CCCCC2)C(=O)N3)c1", "Quantity kind": "melting point", "Value": "232 to 234 °C"}
{"Smiles repr": "O=C1Nc2ccc(-c3cccc(C=NO)c3F)cc2C12CCCCC2", "Quantity kind": "melting point", "Value": "213 to 217 °C"}
{"Smiles repr": "O=C1Nc2ccc(-c3cccc(O)c3)cc2C12CCCCC2", "Quantity kind": "melting point", "Value": "213 to 216 °C"}
